# tested-system: S. pyogenes DHFR (Streptococcus pyogenes, UniProt Q9A091)
# Sequence (Q9A091 1-165): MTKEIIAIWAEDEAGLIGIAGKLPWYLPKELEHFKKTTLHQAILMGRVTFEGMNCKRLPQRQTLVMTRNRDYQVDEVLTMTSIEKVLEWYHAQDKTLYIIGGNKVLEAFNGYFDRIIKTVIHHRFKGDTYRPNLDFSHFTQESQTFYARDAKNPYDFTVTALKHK
# protocol-details: S. pyogenes DHFR enzyme inhibition assay
# Assay type: biochemical
# condition-summary: IC50 (human)/IC50 (pathogen)
measured-property: Selectivity (h/Sp)
Output: the number by itself.

# compound, val
records = [
    ("CCc1nc(N)nc(N)c1C#CCc1cccc(-c2ccccc2)c1", 11),
    ("COc1ccc(-c2ccccc2)cc1C(C)C#Cc1c(C)nc(N)nc1N (stereo not drawn)", 4),
]

Return Selectivity (h/Sp) (reported value) for this compound: CCc1nc(N)nc(N)c1C#CCc1cc(-c2ccncc2)ccc1OC
17

Give the reported Selectivity (h/Sp) for this compound. CCc1nc(N)nc(N)c1C#CCc1cc(-c2ccccc2)ccc1OC
51

Provide only the value of recorded Selectivity (h/Sp) for CCc1nc(N)nc(N)c1C#CC(C)c1cc(-c2ccccc2)ccc1OC (stereo not drawn)
4

Identify Selectivity (h/Sp) associated with the compound CCc1nc(N)nc(N)c1C#CCc1cc(OC)cc(-c2ccccc2)c1
3
